experiment: Inhibition of Mycobacterium tuberculosis cytochrome bd oxidase over expressed in inverted membrane vesicles of Mycobacterium smegmatis deltacydAB assessed as reduction in malate-induced increase in oxygen consumption rate measured after 60 secs in presence of cytochrome bcc-aa3 complex inhibitor TB47 by fluorespirometry; type: cell membranes, Membrane vesicle
Field: IC50. Provide a value for each of the compounds that follow.
Give your result in µM as a bare value.

Param item = CC(C)=CCC/C(C)=C/CC/C(C)=C/Cc1c(C)[nH]c2cccc(F)c2c1=O ; retrieve measured IC50.
7.5

Param item = CC(C)=CCC[C@@H](C)CCc1c(C)[nH]c2ccccc2c1=O ; retrieve measured IC50.
0.35

Param item = COc1ccc2c(=O)c(C/C=C(\C)CC/C=C(\C)CCC=C(C)C)c(C)[nH]c2c1 ; retrieve measured IC50.
0.13

Param item = COc1cccc2c(=O)c(C/C=C(\C)CC/C=C(\C)CCC=C(C)C)c(C)[nH]c12 ; retrieve measured IC50.
1.3

Param item = CC(C)=CCC/C(C)=C/CC/C(C)=C/Cc1c(C)[nH]c2ccc(Cl)cc2c1=O ; retrieve measured IC50.
9

Param item = COc1ccc2[nH]c(C)c(C/C=C(\C)CC/C=C(\C)CCC=C(C)C)c(=O)c2c1 ; retrieve measured IC50.
0.67

Param item = CC(C)=CCC/C(C)=C/CC/C(C)=C/Cc1c(C)[nH]c2ccc([N+](=O)[O-])cc2c1=O ; retrieve measured IC50.
1.8

Param item = CC(C)=CCC/C(C)=C/CC/C(C)=C/Cc1c(C)[nH]c2cc(F)ccc2c1=O ; retrieve measured IC50.
0.37

----------
assay: Inhibition of Mycobacterium tuberculosis cytochrome bd oxidase over expressed in inverted membrane vesicles of Mycobacterium smegmatis deltacydAB assessed as reduction in malate-induced increase in oxygen consumption rate measured after 60 secs in presence of cytochrome bcc-aa3 complex inhibitor TB47 by fluorespirometry; format: cell membranes, Membrane vesicle
Field: IC50. Provide a value for each of the compounds that follow.
Give your result in µM as a bare value.

Param item = CC(C)=CCC/C(C)=C/Cc1c(C)[nH]c2ccccc2c1=O ; retrieve measured IC50.
1.1

Param item = CC(C)=CCC[C@@H](C)CCc1c(C)[nH]c2cc(N)ccc2c1=O ; retrieve measured IC50.
52

Param item = CC(C)=CCC/C(C)=C/CC/C(C)=C/Cc1c(C)[nH]c2ccc(N=[N+]=[N-])cc2c1=O ; retrieve measured IC50.
4.7

Param item = CC(C)=CCC/C(C)=C/CC/C(C)=C/Cc1c(C)[nH]c2cccc(O)c2c1=O ; retrieve measured IC50.
0.61

Param item = CC(C)=CCC/C(C)=C/CC/C(C)=C/Cc1c(C)[nH]c2cc(C)ccc2c1=O ; retrieve measured IC50.
31

Param item = CC(C)=CCC/C(C)=C/CC/C(C)=C/Cc1c(C)[nH]c2cc(Cl)cc(Cl)c2c1=O ; retrieve measured IC50.
4.6

Param item = COc1cccc2[nH]c(C)c(C/C=C(\C)CC/C=C(\C)CCC=C(C)C)c(=O)c12 ; retrieve measured IC50.
0.36

Param item = CC(C)=CCC/C(C)=C/CC/C(C)=C/Cc1c(C)[nH]c2ccc(F)cc2c1=O ; retrieve measured IC50.
0.25

Param item = CC(C)=CCC/C(C)=C/CC/C(C)=C/Cc1c(C)[nH]c2ccc(N)cc2c1=O ; retrieve measured IC50.
5

Cited source for all entries: ChEMBL document CHEMBL5126646
